These measurements were taken from patent US20140142155A1.

# run-description: Clinical pharmacokinetics: absorption, distribution, metabolism, elimination (incl. radiolabel study)
# Format: in vivo, human
# assay-context: human, plasma, oral, healthy subjects
recorded-metric: half-life

Identify half-life associated with the compound CC1=NN(c2ccc(C)c(C)c2)C(=O)/C1=N\Nc1cccc(-c2cccc(C(=O)O)c2)c1O [eltrombopag]
21 to 32 h

----------
# run-description: Clinical pharmacokinetics: absorption, distribution, metabolism, elimination (incl. radiolabel study)
# Assay type: in vivo, human
# assay-context: human, plasma, oral, ITP patients
recorded-metric: half-life

Name the recorded half-life of the item CC1=NN(c2ccc(C)c(C)c2)C(=O)/C1=N\Nc1cccc(-c2cccc(C(=O)O)c2)c1O [eltrombopag] in your answer.
26 to 35 h
